# assay: qHTS assay for identifying genotoxic compounds that show differential cytotoxicity against isogenic chicken DT40 cell lines with known DNA damage response pathways - Rad54/Ku70 mutant cell line (AID 743015); note: nearly all actives have a fitted effect of over 60% in size
# measurement.context: DT40 Rad54/Ku70 mutant viability, CellTiter-Glo, 40 h; series mostly up to 66.8 µM
Results filed as inconclusive are left out. Calls of active or inactive are those of the source. Calls come from the whole dose curve; as a rule, active = well fitted cell-killing curve with a large enough effect in the repeat runs; inconclusive = weak or mixed curves; inactive = no such curve, though single readings can be large or run the other way.
A correct response names exactly one class from active, inactive

Examples with answers:
NS(=O)(=O)c1cc2c(cc1Cl)NC(C(Cl)Cl)NS2(=O)=O (configuration not stated) :: inactive
F[Si-2](F)(F)(F)(F)F :: inactive
O=C(CN1CCN(Cc2ccc3c(c2)OCO3)CC1)N1c2ccccc2Sc2ccccc21 :: active
C/C=C(\C)C(=O)OCC/C=C\CC :: inactive
CC1=CC[C@H](CC=O)C1(C)C :: inactive

Input: Answer briefly: the call reported for `CO/N=C(/C(=O)N[C@@H]1C(=O)N2C(C(=O)O)=C(Cn3nnc(C)n3)CS[C@H]12)c1csc(N)n1` in this assay.
Output: inactive

Input: Answer briefly: the call reported for `O=[Si]=O` in this assay.
Output: inactive

====

# study.system: Cytochrome P450 2D6 (Homo sapiens) (UniProt P10635)
# Sequence (P10635 whole entry, looked up): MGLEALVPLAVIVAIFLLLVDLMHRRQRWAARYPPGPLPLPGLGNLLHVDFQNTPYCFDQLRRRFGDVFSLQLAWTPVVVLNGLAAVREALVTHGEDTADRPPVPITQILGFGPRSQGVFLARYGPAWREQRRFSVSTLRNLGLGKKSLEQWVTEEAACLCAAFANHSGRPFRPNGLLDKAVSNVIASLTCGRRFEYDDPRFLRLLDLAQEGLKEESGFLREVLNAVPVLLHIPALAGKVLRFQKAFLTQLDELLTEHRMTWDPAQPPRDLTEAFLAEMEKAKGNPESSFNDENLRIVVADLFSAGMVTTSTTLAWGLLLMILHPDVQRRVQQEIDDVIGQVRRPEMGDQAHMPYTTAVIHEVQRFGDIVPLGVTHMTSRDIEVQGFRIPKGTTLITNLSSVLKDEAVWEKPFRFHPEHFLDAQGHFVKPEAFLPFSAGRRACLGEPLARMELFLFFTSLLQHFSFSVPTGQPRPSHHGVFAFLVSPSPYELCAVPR
# assay: Cytochrome P450 Family 2 Subfamily D Member 6 (CYP2D6) small molecule antagonists: luciferase reporter qHTS assay (AID 1671196); note: nearly all actives have a fitted effect of over 50% in size
# measurement.context: P450-Glo CYP2D6 enzyme assay, luciferin luminescence, 1 h; series mostly up to 115 µM
# Source text: U.S. Tox21 Program National Center for Advancing Translational Sciences [NCATS] U.S. Environmental Protection Agency [EPA] National Institutes of Environmental Health Sciences [NIEHS] National Toxicology Program [NTP] U.S. Food and Drug Administration [FDA] […] The luciferin products formed are detected with a luciferin detection reagent, and the amount of light produced is proportional to CYP activity. […]
Inconclusive results are not listed. The source made the active and inactive calls. The call rests on the fitted dose curve; in most records, active means well fitted inhibition curve with a large enough effect in the repeat runs; inconclusive means weak or mixed curves; inactive means no such curve, though single readings can be large or run the other way.
A correct response names exactly one class from active, inactive

FC(F)(F)/C(=N\OCC1OCCO1)c1ccc(Cl)cc1 :: inactive
COc1cc(C=O)ccc1OC(=O)C(C)C :: inactive

Input: Answer briefly: the call reported for `CC(C)(C)c1ccc(C=O)cc1` in this assay.
Output: inactive

Input: Answer briefly: the call reported for `CC(=O)OC(C)(C)Cc1ccccc1` in this assay.
Output: inactive

Input: Answer briefly: the call reported for `O=C1OC(=O)c2ccccc21` in this assay.
Output: inactive

====

# study.system: Estrogen receptor (Homo sapiens) (UniProt P03372)
# Sequence (P03372 whole entry, looked up): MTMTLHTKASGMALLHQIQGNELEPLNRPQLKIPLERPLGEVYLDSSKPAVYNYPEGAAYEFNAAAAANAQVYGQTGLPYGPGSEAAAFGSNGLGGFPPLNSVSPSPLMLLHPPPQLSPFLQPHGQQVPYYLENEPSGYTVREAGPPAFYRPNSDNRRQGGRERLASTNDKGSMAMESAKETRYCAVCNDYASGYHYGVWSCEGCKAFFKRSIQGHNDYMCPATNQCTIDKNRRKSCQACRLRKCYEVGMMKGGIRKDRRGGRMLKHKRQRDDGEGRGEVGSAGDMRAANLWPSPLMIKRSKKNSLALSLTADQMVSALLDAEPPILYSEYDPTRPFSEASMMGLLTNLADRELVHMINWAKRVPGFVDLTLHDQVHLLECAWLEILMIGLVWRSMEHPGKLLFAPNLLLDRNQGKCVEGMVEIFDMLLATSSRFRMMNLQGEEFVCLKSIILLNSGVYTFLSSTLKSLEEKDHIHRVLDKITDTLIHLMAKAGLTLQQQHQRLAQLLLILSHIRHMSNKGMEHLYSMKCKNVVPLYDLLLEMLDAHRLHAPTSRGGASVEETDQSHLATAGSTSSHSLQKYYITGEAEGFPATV
# assay: qHTS assay to identify small molecule agonists of the estrogen receptor alpha (ER-alpha) signaling pathway (AID 743075);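 note: HEK293 GripTite cells with ER-alpha and UAS-driven beta-lactamase reporter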; note: potency is the fitted concentration of half-maximal effect
# measurement.context: HEK293 ER-alpha-UAS-bla, beta-lactamase FRET ratio, 18 h; series mostly up to 70.1 µM
Results filed as inconclusive are left out. The source made the active and inactive calls. Calls come from the whole dose curve.
measured.endpoint: Potency

Study these solved cases before continuing.
Cc1oc(=O)oc1CN1CCN(c2cc3c(cc2F)c(=O)c(C(=O)O)c2n3C(C)S2)CC1 (stereo unspecified) :: 23.9 µM [activator] (active)
OC(CCN1CCCCC1)(c1ccccc1)c1ccccc1 :: inactive
CC(C)SCc1ccco1 :: inactive
Cc1c(C(C)C)c(=O)n(-c2ccccc2)n1C :: inactive
CC(C)CCO :: inactive

Please find the next compound below.
Input: For the compound shown here, `COc1cccc2sc(N)nc12` , give the reported Potency.
Output: inactive
